# measuredOn: EBP-Ig (N-terminal 225 amino acids of the human EPO receptor joined to an Ig heavy chain) (Homo sapiens)
# Construct: Ig heavy chain (fusion partner); made in house; host or cells: NSO cells (secreted into conditioned media)
# assayName: Inhibition of [125I]EPO binding to immobilized EBP-Ig (EPO binding protein-Ig), scintillation Flash plate competition assay
# conditionNotes: 50 μM compound; Table 18A
observable: EPO/EBP-Ig % inh @ 50 μM (%)
Numeric answer only, unit % assumed.

For record COC(=O)[C@H](CCCCNC(=O)OCc1ccccc1)NC/C=C/c1ccccc1 the listed EPO/EBP-Ig % inh @ 50 μM is 14

For record COC(=O)[C@H](CCCCNC(=O)OCc1ccccc1)NC/C=C/c1ccc(OC)cc1 the listed EPO/EBP-Ig % inh @ 50 μM is 17

For record COC(=O)[C@H](CCCCN)NC/C=C/c1ccc(C(=O)O)cc1 the listed EPO/EBP-Ig % inh @ 50 μM is 12

For record COC(=O)[C@H](CCCCNC(=O)OC(C)(C)C)NC/C=C/c1cccc(Oc2ccc(C(C)(C)C)cc2)c1 the listed EPO/EBP-Ig % inh @ 50 μM is 13

For record O=C(NCCCC[C@H](NC/C=C/c1ccc(C(F)(F)F)cc1)C(=O)O)OCc1ccccc1Cl.O=C(O)C(F)(F)F the listed EPO/EBP-Ig % inh @ 50 μM is 28

For record COC(=O)[C@H](CCCCNC(=O)OC(C)(C)C)NC/C=C/c1cccc(Oc2ccccc2)c1 the listed EPO/EBP-Ig % inh @ 50 μM is 20

For record CC(=O)O.COC(=O)c1cccc(C=CCNC(CCCCNC(=O)OCc2ccccc2)C(=O)OC)c1 (centres unmarked) the listed EPO/EBP-Ig % inh @ 50 μM is 42

For record COC(=O)[C@H](CCCCNC(=O)OCc1ccccc1)NC/C=C/c1ccc(C(=O)O)cc1 the listed EPO/EBP-Ig % inh @ 50 μM is 6

###

# measuredOn: EBP-Ig (N-terminal 225 amino acids of the human EPO receptor joined to an Ig heavy chain) (Homo sapiens, UniProt P19235)
# Construct: Ig heavy chain (fusion partner); made in house; host or cells: NSO cells (secreted into conditioned media)
# Sequence (P19235 25-250 limits assumed): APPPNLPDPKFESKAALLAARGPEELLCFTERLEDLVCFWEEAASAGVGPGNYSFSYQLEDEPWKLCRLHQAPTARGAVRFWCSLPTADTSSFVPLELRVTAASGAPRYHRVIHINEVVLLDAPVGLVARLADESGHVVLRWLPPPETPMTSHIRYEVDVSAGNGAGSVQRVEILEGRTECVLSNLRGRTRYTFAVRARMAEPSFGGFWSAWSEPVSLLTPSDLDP
# assayName: Inhibition of [125I]EPO binding to immobilized EBP-Ig (EPO binding protein-Ig), scintillation Flash plate competition assay
# conditionNotes: 50 μM compound
observable: EPO/EBP-Ig % inh @ 50 μM (%)
Numeric answer only, unit % assumed.

For record CC(=O)O.COC(=O)c1cccc(C=CCNC(CSCc2ccccc2)C(=O)OC)c1 (stereo not shown) [compound 368] the listed EPO/EBP-Ig % inh @ 50 μM is 40

For record O=C(O)C(F)(F)F.O=C(O)[C@H](Cc1ccc(O)cc1)NC/C=C/c1ccc(C(F)(F)F)cc1 [compound 362] the listed EPO/EBP-Ig % inh @ 50 μM is 0

For record NC(=O)C[C@H](NC/C=C/c1ccc(C(F)(F)F)cc1)C(=O)O.O=C(O)C(F)(F)F [compound 367] the listed EPO/EBP-Ig % inh @ 50 μM is 0

For record C[C@H](O)[C@H](NC/C=C/c1ccc(C(F)(F)F)cc1)C(=O)O.O=C(O)C(F)(F)F [compound 358] the listed EPO/EBP-Ig % inh @ 50 μM is 0

###

# measuredOn: EBP-Ig (N-terminal 225 amino acids of the human EPO receptor joined to an Ig heavy chain) (Homo sapiens, UniProt P19235)
# Construct: Ig heavy chain (fusion partner); made in house; host or cells: NSO cells (secreted into conditioned media)
# assayName: Inhibition of [125I]EPO binding to immobilized EBP-Ig (EPO binding protein-Ig), scintillation Flash plate competition assay
# conditionNotes: 50 μM compound; Table 10
For each record, write down the corresponding EPO/EBP-Ig % inh @ 50 μM.
Numeric answer only, unit % assumed.

For record COc1cccc(CCNC(=O)C(CCCCN)N(C/C=C/c2ccc([N+](=O)[O-])cc2)C/C=C/c2ccc([N+](=O)[O-])cc2)c1 (stereo not drawn) the listed EPO/EBP-Ig % inh @ 50 μM is 18

For record COc1ccc(CCNC(=O)C(CCCCN)N(C/C=C/c2ccccc2)C/C=C/c2ccccc2)cc1OC (stereo not drawn) the listed EPO/EBP-Ig % inh @ 50 μM is 48

For record COc1ccc(CCNC(=O)C(CCCCNC(=O)OC(C)(C)C)N(C/C=C/c2cccc(Oc3ccccc3)c2)C/C=C/c2cccc(Oc3ccccc3)c2)cc1 (stereo not drawn) the listed EPO/EBP-Ig % inh @ 50 μM is 10

For record CCOC(=O)c1ccc(NC(=O)NCCCCC(C(=O)NCCc2ccc(OC)cc2)N(C/C=C/c2ccccc2)C/C=C/c2ccccc2)cc1 (stereo not drawn) the listed EPO/EBP-Ig % inh @ 50 μM is 36

For record COc1ccc(CCNC(=O)C(CCCCNC(=O)Nc2ccc(Cl)c(Cl)c2)N(C/C=C/c2ccccc2)C/C=C/c2ccccc2)cc1 (stereo not drawn) the listed EPO/EBP-Ig % inh @ 50 μM is 42

For record CCCCNC(=O)C(CCCCNC(=O)c1ccc(OC)cc1)N(C/C=C/c1ccccc1)C/C=C/c1ccccc1 (stereo not drawn) the listed EPO/EBP-Ig % inh @ 50 μM is 20

###

For each record, write down the corresponding EPO/EBP-Ig % inh @ 50 μM.
# measuredOn: EBP-Ig (N-terminal 225 amino acids of the human EPO receptor joined to an Ig heavy chain) (Homo sapiens, UniProt P19235)
# Construct: Ig heavy chain (fusion partner); made in house; host or cells: NSO cells (secreted into conditioned media)
# assayName: Inhibition of [125I]EPO binding to immobilized EBP-Ig (EPO binding protein-Ig), scintillation Flash plate competition assay
# conditionNotes: 50 μM compound; Table 13
Numeric answer only, unit % assumed.

For record O=C(O)CCC(=O)NCCCCC(C(=O)NCCCOCCCCOCCCNC(=O)C(CCCCNC(=O)CCC(=O)O)N(Cc1ccc(OCc2ccccc2)cc1)Cc1ccc(OCc2ccccc2)cc1)N(Cc1ccc(OCc2ccccc2)cc1)Cc1ccc(OCc2ccccc2)cc1 (stereo not shown) the listed EPO/EBP-Ig % inh @ 50 μM is 65

For record CC(C)(C)OC(=O)NCCCCC(C(=O)NCCOCCOCCNC(=O)C(CCCCNC(=O)OC(C)(C)C)N(Cc1ccc(OCc2ccccc2)cc1)Cc1ccc(OCc2ccccc2)cc1)N(Cc1ccc(OCc2ccccc2)cc1)Cc1ccc(OCc2ccccc2)cc1 (stereo not shown) the listed EPO/EBP-Ig % inh @ 50 μM is −12

For record CC(C)(C)OC(=O)NCCCCC(C(=O)NCCCCCCCCCCCCNC(=O)C(CCCCNC(=O)OC(C)(C)C)N(Cc1ccc(OCc2ccccc2)cc1)Cc1ccc(OCc2ccccc2)cc1)N(Cc1ccc(OCc2ccccc2)cc1)Cc1ccc(OCc2ccccc2)cc1 (stereo not shown) the listed EPO/EBP-Ig % inh @ 50 μM is −13

For record NCCCCC(C(=O)NCCOCCOCCNC(=O)C(CCCCN)N(Cc1ccc(OCc2ccccc2)cc1)Cc1ccc(OCc2ccccc2)cc1)N(Cc1ccc(OCc2ccccc2)cc1)Cc1ccc(OCc2ccccc2)cc1 (stereo not shown) the listed EPO/EBP-Ig % inh @ 50 μM is 51

###

# measuredOn: EBP-Ig (N-terminal 225 amino acids of the human EPO receptor joined to an Ig heavy chain) (Homo sapiens, UniProt P19235)
# Construct: Ig heavy chain (fusion partner); made in house; host or cells: NSO cells (secreted into conditioned media)
# assayName: Inhibition of [125I]EPO binding to immobilized EBP-Ig (EPO binding protein-Ig), scintillation Flash plate competition assay
observable: pIC50
Just so you know, pIC50 here is -log10 of the concentration in molar units; reply with that number alone.

For record COC(=O)C(CCCCN)N(C/C=C/c1cccc(Oc2ccc(C(C)(C)C)cc2)c1)Cc1cccc(OCc2ccccc2)c1 (stereo not drawn) [compound 139] the listed pIC50 is 5.00

For record O=C(O)CCC(C(=O)O)N(C/C=C/c1cccc(Oc2cccc(C(F)(F)F)c2)c1)C/C=C/c1cccc(Oc2cccc(C(F)(F)F)c2)c1 (stereo not drawn) [compound 105] the listed pIC50 is 4.46

For record COC(=O)C(CCCCN)N(Cc1ccc(OCc2ccccc2)cc1)Cc1cccc(NC(=O)c2ccc(C)cc2)c1 (stereo not drawn) [compound 118] the listed pIC50 is 5.00

For record O=C(O)CC(C(=O)NCCCOCCCCOCCCNC(=O)C(CC(=O)O)N(Cc1ccc(OCc2ccccc2)cc1)Cc1ccc(OCc2ccccc2)cc1)N(Cc1ccc(OCc2ccccc2)cc1)Cc1ccc(OCc2ccccc2)cc1 (stereo not drawn) [compound 243] the listed pIC50 is 4.74

For record COC(=O)C(CCCCN)N(C/C=C/c1cccc(Oc2ccccc2)c1)Cc1cccc(Oc2ccccc2)c1 (stereo not drawn) [compound 137] the listed pIC50 is 4.52

For record O=C(O)[C@H](CO)N(C/C=C/c1cccc(Oc2ccccc2)c1)C/C=C/c1cccc(Oc2ccccc2)c1 [cpd 300, N,N-Bis(3-phenoxycinnamyl)Ser-OH] the listed pIC50 is 3.84
